These measurements were taken from patent US8946302B2.

# maps each entry to its Kd
target.or.test.system: sigma-2 receptor (Rattus norvegicus, UniProt Q5U3Y7)
protocol.notes: Sigma-2 competitive binding, [3H]-DTG with (+)-pentazocine, rat liver membranes (Example 6)
Design: from tissue; host or cells: rat liver membranes
details: rat liver membranes, n = 3; read-out: Sigma2 KD values
Give the value in µM but do not write µM after it.

CCCNCCc1ccc([N+](=O)[O-])cc1 [Compound 7, N-propyl-N-3-(4-nitophenyl)-ethylamine] ... 53.6
CCCCCCCCN(CCCCCCCC)CCCc1ccc(F)cc1 [Compound 8] ... 1.65
CCCN(Cc1ccc([N+](=O)[O-])cc1)C(=O)CCc1ccc(F)cc1 [Compound 13] ... 236

Per the records, this compound ( NCCCc1ccccc1 [Compound 2] ) has Kd equal to 270

Per the records, this compound ( CCCCNCc1ccc([N+](=O)[O-])cc1 [Compound 16, N-Butyl-N-4-nitrobenzylamine] ) has Kd equal to 1.68

Per the records, this compound ( CCCN(CCCc1ccc(F)cc1)Cc1ccc(N)cc1 [Compound 17] ) has Kd equal to 2.15

---

Test system: SKOV-3
protocol.notes: Cytotoxicity assay SKOV-3
Type: cell-based
details: Homo sapiens, SK-OV-3, HU Ovarian, read-out: IC50 (SE) growth inhibition
# maps each entry to its IC50

The examples below pair each entry with its known result.
CCCN(CCCc1ccc([N+](=O)[O-])cc1)CCc1ccc(N)cc1 [Compound 18] ... > 100 µM
CCCN(CCCc1ccc(F)cc1)Cc1ccc(N)cc1 [Compound 17] ... > 100 µM

Per the records, this molecule ( CCCN(CCCc1ccc(F)cc1)CCc1ccc(N=[N+]=[N-])c(I)c1 [Compound 19] ) has IC50 equal to > 100 µM

---

Test system: MCP10A
protocol.notes: Cytotoxicity assay MCP10A
Assay type: cell-based
details: Homo sapiens, HU Breast, read-out: IC50 (SE) growth inhibition
pIC50: −log10 of the molar value.
reported.property: pIC50

The examples below pair each entry with its known result.
CCCN(CCCc1ccc([N+](=O)[O-])cc1)CCc1ccc(N)cc1 [Compound 18] ... < 4.00
CCCN(CCCc1ccc(F)cc1)CCc1ccc(N=[N+]=[N-])c(I)c1 [Compound 19] ... 4.06

# evaluate next
Per the records, this compound ( CCCCN(CCCC)CCCc1ccc([N+](=O)[O-])cc1 [Compound 11, N,N-Dibutyl-3-(4-nitrohenyl)propylamine] ) has pIC50 equal to < 4.00

---

target.or.test.system: UniProtKB Q5U3Y7
Sequence (Q5U3Y7 1-176): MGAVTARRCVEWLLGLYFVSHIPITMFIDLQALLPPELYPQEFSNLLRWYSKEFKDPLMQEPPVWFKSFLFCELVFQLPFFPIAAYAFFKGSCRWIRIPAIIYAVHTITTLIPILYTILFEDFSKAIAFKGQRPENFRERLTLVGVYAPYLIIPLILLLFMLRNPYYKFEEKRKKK
protocol.notes: Sigma-2 competitive binding, [3H]-DTG with (+)-pentazocine, rat liver membranes (Example 6)
Set-up: from tissue; host or cells: rat liver membranes
details: rat liver membranes, n = 3; read-out: Sigma2 KD values
# maps each entry to its pKd
Remember, pKd is on a log scale: it is -log10 of the molar concentration.

The examples below pair each entry with its known result.
CCCCN(CCCC)C(=O)CCc1ccc(F)cc1 ... 3.90
CCCCN(CCCC)CCCC ... 4.35
CCCN(CCCc1ccc([N+](=O)[O-])cc1)CCc1ccc(N)cc1 ... 7.08
CCCCN(CCCC)CCCc1ccc(F)cc1 ... 6.16
CCCCN(CCCC)CCCc1ccc([N+](=O)[O-])cc1 ... 6.39

# evaluate next
Per the records, this compound ( CCCN(CCCc1ccc(F)cc1)Cc1ccc(N)c(I)c1 ) has pKd equal to 3.88
